- test system: F1F0-ATPase (Bos taurus)
- Construct: from tissue; host or cells: bovine sub-mitochondrial particles (SMPs)
- assay comment: Inhibition of ATP synthesis and hydrolysis by the F1F0-ATPase
- Type: biochemical
pIC50: −log10 of the molar value.
Assign pIC50 to each entry below.

Known pIC50 results, listed for orientation:
1) Cc1ccccc1CC1N=C(c2ccc(O)cc2)c2cc(Cl)ccc2NC1=O (centres unmarked) [Compound 17] : 5.00 to 5.30
2) CCc1cccc(CC2N=C(c3ccc(O)cc3)c3cc(Cl)ccc3NC2=O)c1 (centres unmarked) [Compound 25] : 5.00 to 5.30
3) CCc1ccccc1CC1N=C(c2ccc(O)cc2)c2cc(Cl)ccc2N(C)C1=O (centres unmarked) [Compound 24] : 5.00 to 5.30

Need pIC50 for each of these compounds.
1. CN1C(=O)C(Cc2ccccc2C(F)(F)F)N=C(c2ccc(O)cc2)c2cc(Cl)ccc21 (centres unmarked) [Compound 32]
2. O=C1Nc2ccc(Cl)cc2C(c2ccc3[nH]c(=O)[nH]c3c2)=NC1Cc1ccccc1Cl (centres unmarked) [Compound 41]

5.00 to 5.30
> 5.30

---

Assign IC50 to each entry below.
- test system: F1F0-ATPase (Bos taurus, UniProt P13621)
- Construct: from tissue; host or cells: bovine sub-mitochondrial particles (SMPs)
- assay comment: Inhibition of ATP synthesis and hydrolysis by the F1F0-ATPase
- Assay type: biochemical
- Method: The compounds listed in Table 4 were tested for activity against F1F0-ATPase and cytotoxicity in Ramos cells. Inhibition of ATP synthesis and hydrolysis by the F1F0-ATPase was measured as described in K. M. Johnson et al., Chemistry & Biology 2005, 12, 485-496. […]

1) O=C1Nc2ccc(Cl)cc2C(c2ccc(O)cc2)=NC1Cc1ccccc1Br (stereo not shown) : 5 to 10 µM
2) Cc1ccccc1CC1N=C(c2ccc(O)cc2)c2cc(Cl)ccc2N(C)C1=O (stereo not shown) : > 10 µM
3) CC(C)c1ccc(CC2N=C(c3ccc(O)cc3)c3cc(Cl)ccc3N(C)C2=O)cc1 (stereo not shown) : 5 to 10 µM

Need IC50 for each of these molecules.
1. CN1C(=O)C(Cc2cccc(Br)c2)N=C(c2ccc(O)cc2)c2cc(Cl)ccc21 (stereo not shown)
2. CN1C(=O)C(Cc2ccccc2Cl)N=C(c2ccc(O)cc2)c2cc(Cl)ccc21 (stereo not shown)
3. CN1C(=O)C(Cc2ccc(C(F)(F)F)cc2)N=C(c2ccc(O)cc2)c2cc(Cl)ccc21 (stereo not shown)
4. CCc1ccc(CC2N=C(c3ccc(O)cc3)c3cc(Cl)ccc3N(C)C2=O)cc1 (stereo not shown)
5. CCc1ccccc1CC1N=C(c2ccc(O)cc2)c2cc(Cl)ccc2NC1=O (stereo not shown)
6. CNC(=O)Nc1ccc(C2=NC(Cc3ccccc3Br)C(=O)Nc3ccc(Cl)cc32)cc1 (stereo not shown)
7. CCc1cccc(CC2N=C(c3ccc(O)cc3)c3cc(Cl)ccc3N(C)C2=O)c1 (stereo not shown)

< 5 µM
< 5 µM
< 5 µM
5 to 10 µM
5 to 10 µM
5 to 10 µM
5 to 10 µM

Hey, just so you know, these numbers are from patent US8242109B2.
